From: paper PMC6648297

- measured on: UniProtKB Q13526
- Sequence (Q13526 whole entry): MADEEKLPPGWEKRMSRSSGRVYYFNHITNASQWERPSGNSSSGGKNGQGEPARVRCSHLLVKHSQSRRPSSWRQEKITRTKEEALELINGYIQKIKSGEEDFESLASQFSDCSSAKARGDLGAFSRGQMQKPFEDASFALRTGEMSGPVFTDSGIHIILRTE
- procedure text: SensoLyte Green fluorimetric PPIase activity assay, dose-response
observable: EC50

EC50 recorded for this compound, `CCOC(=O)CN1C(=O)c2ccc3c4c(ccc(c24)C1=O)C(=O)N(CC(=O)OCC)C3=O` , is ~10 µM
